# Tested on: Escherichia coli
# Experimental protocol: Compound was evaluated for antibacterial activity against Escherichia coli
# Assay type: functional
Quantity name: MIC (µM)
Answer format: numeric, µM implied, no suffix.

# Substance, Experimental target, MIC [µM]
measured = [
    ("H-KAAKKAAKAAKKAAKAAKKAA-OH", "Escherichia coli", 8),
    ("H-KLGKKLGKLGKKLG-OH", "Escherichia coli", 22),
    ("H-KAAKKAAKAAKKAA-OH", "Escherichia coli", 47),
]

Indicate the recorded MIC value for this substance: H-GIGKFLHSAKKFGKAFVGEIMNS-NH2
10

Indicate the recorded MIC value for this substance: H-KLAKKLAKLAKKLA-OH
6

Indicate the recorded MIC value for this substance: H-KLGKKLGKLGKKLGKLGKKLG-OH
4

====

# key: entry, value: Concentration
# Species on record: Mus musculus
# Experimental protocol: Compound was tested for sublethal concentrations in 3T3 mouse fibroblast lysis.
# Type: functional

Known results for substances:
# Substance, Quantity name, Result
rows = [
    ("H-KAAKKAAKAAKKAAKAAKKAA-OH", "Concentration", "> 440 µM"),
    ("H-KLAKKLAKLAKKLA-OH", "Concentration", "> 272 µM"),
    ("H-KAAKKAAKAAKKAA-OH", "Concentration", "> 525 µM"),
]

Indicate the recorded Concentration value for this substance: H-KLGKKLGKLGKKLGKLGKKLG-OH
> 393 µM

Indicate the recorded Concentration value for this substance: H-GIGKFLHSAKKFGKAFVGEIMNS-NH2
60 µM

====

# key: entry, value: MIC
# Tested on: Escherichia coli
# Experimental protocol: Compound was evaluated for antibacterial activity against Escherichia coli
# Assay type: functional

Indicate the recorded MIC value for this molecule: CC(C)C[C@H](NC(=O)[C@H](CCCCN)NC(=O)[C@H](C)NC(=O)[C@H](CC(C)C)NC(=O)[C@H](CCCCN)NC(=O)[C@H](CCCCN)NC(=O)[C@H](C)NC(=O)[C@H](CC(C)C)NC(=O)[C@H](CCCCN)NC(=O)[C@H](C)NC(=O)[C@H](CC(C)C)NC(=O)[C@@H](N)CCCCN)C(=O)N[C@@H](C)C(=O)N[C@@H](CCCCN)C(=O)O
6 µM

Indicate the recorded MIC value for this molecule: CC(C)C[C@H](NC(=O)[C@H](CCCCN)NC(=O)[C@H](CCCCN)NC(=O)[C@H](C)NC(=O)[C@H](CC(C)C)NC(=O)[C@H](CCCCN)NC(=O)[C@H](C)NC(=O)[C@H](CC(C)C)NC(=O)[C@H](CCCCN)NC(=O)[C@H](CCCCN)NC(=O)[C@H](C)NC(=O)[C@H](CC(C)C)NC(=O)[C@H](CCCCN)NC(=O)[C@H](C)NC(=O)[C@H](CC(C)C)NC(=O)[C@H](CCCCN)NC(=O)[C@H](CCCCN)NC(=O)[C@H](C)NC(=O)[C@H](CC(C)C)NC(=O)[C@@H](N)CCCCN)C(=O)N[C@@H](C)C(=O)O
4 µM

Indicate the recorded MIC value for this molecule: CC(C)C[C@H](NC(=O)[C@H](C)NC(=O)[C@H](CCCCN)NC(=O)[C@H](CC(C)C)NC(=O)[C@H](C)NC(=O)[C@H](CCCCN)NC(=O)[C@H](CCCCN)NC(=O)[C@H](CC(C)C)NC(=O)[C@H](C)NC(=O)[C@H](CCCCN)NC(=O)[C@H](CC(C)C)NC(=O)[C@H](C)NC(=O)[C@H](CCCCN)NC(=O)[C@H](CCCCN)NC(=O)[C@H](CC(C)C)NC(=O)[C@H](C)NC(=O)[C@H](CCCCN)NC(=O)[C@H](CC(C)C)NC(=O)[C@H](C)NC(=O)[C@@H](N)CCCCN)C(=O)N[C@@H](CCCCN)C(=O)O
4 µM

Indicate the recorded MIC value for this molecule: CC(C)C[C@H](NC(=O)[C@H](CCCCN)NC(=O)[C@H](C)NC(=O)[C@H](CC(C)C)NC(=O)[C@H](CCCCN)NC(=O)[C@H](CCCCN)NC(=O)[C@H](C)NC(=O)[C@H](CC(C)C)NC(=O)[C@H](CCCCN)NC(=O)[C@H](C)NC(=O)[C@H](CC(C)C)NC(=O)[C@H](CCCCN)NC(=O)[C@H](CCCCN)NC(=O)[C@H](C)NC(=O)[C@H](CC(C)C)NC(=O)[C@H](CCCCN)NC(=O)[C@H](C)NC(=O)[C@H](CC(C)C)NC(=O)[C@@H](N)CCCCN)C(=O)N[C@@H](C)C(=O)N[C@@H](CCCCN)C(=O)O
4 µM

====

# Test system: Staphylococcus aureus
# Experimental protocol: Compound was evaluated for antibacterial activity against Staphylococcus aureus
# Assay type: functional
# key: entry, value: MIC

Known results for substances:
# Substance, MIC
measured = [
    ("H-KLAKLAK-OH", "> 95 µM"),
    ("H-KLAKKLA-OH", "> 100 µM"),
]

Kindly review the next substance as well.
Write MIC of H-KAAKKAAKAAKKAA-OH ; system used: Staphylococcus aureus
> 256 µM
